assay: chemical genetic growth profiling, strain panel (AID 1159580);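 further: tested at 20 µM; growth read once vehicle control cultures reached saturation at 30 °C; 1 = growth at the plate median or of vehicle wells; lower values mean less growth of the strain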; details: S. cerevisiae deletion strains, growth OD, locus YOR144C, strain elg1, active compounds read low
Among all 5,500 compounds or so, about 2,000 (36%) were called active. Roughly 18% stayed inconclusive and do not appear here. The list shows a part of the results.
observationType: normalized growth

C[C@H]1[C@H](C)CC[C@]2(CO)CC[C@]3(C)C(=CCC4[C@@]5(C)CC[C@H](O)C(C)(C)C5CC[C@]43C)[C@H]12 (some centres undefined) ... 1.02
Nc1ccc(S(=O)(=O)Nc2cnc3ccccc3n2)cc1 ... 0.977
COC(=O)Nc1nc2ccc(C(=O)c3ccccc3)cc2[nH]1 ... 1
CC(C)=CCCC1(C)C=Cc2c(O)c3c(c(CC=C(C)C)c2O1)OC12C(=CCCC1C(C)(C)O[C@@]2(C/C=C(\C)C(=O)O)C(=O)O)C3=O (some centres undefined) ... 0.888
CCCOc1ccccc1-c1nc2n[nH]nc2c(=O)[nH]1 ... 1.01
C[C@@H]1OC(O[C@H]2[C@H](OC(=O)[C@]34CCC(C)(C)CC3C3=CCC5[C@@]6(C)CC[C@H](OC7O[C@@H](C)[C@H](O[C@@H]8OC[C@@H](O)[C@H](O)[C@H]8O)[C@@H](O)[C@H]7O)C(C)(C)C6CC[C@@]5(C)[C@]3(C)CC4O)OC[C@H](O)[C@H]2O)[C@H](O)[C@H](O)[C@H]1O[C@@H]1O[C@H](CO)[C@@H](O)[C@H](O)[C@H]1O (some centres undefined) ... 0.982
C#C[C@]1(O)CCC2C3CCC4=CC(=O)CC[C@@H]4C3CC[C@@]21C (some centres undefined) ... 0.98
CC(C)=CCCC1(C)C=Cc2c(O)c3c(c(CC=C(C)C)c2O1)OC12C(=CC4CC1C(C)(C)OC2(C/C=C(\C)C(N)=O)C4=O)C3=O (centres undefined) ... 0.987
CC1(C)CC[C@@]2(C(=O)O)C(C1)C1=CCC3[C@@]4(C)CC[C@H](O)C(C)(C)C4CC[C@@]3(C)[C@]1(C)C[C@@H]2O (some centres undefined) ... 1.03
C/C=C(/C)C(=O)O[C@@H]1[C@H](OC(C)=O)[C@@]2(CO)C(CC1(C)C)C1=CCC3[C@@]4(C)CC[C@H](O[C@@H]5O[C@H](C(=O)O)[C@@H](O[C@@H]6O[C@H](CO)[C@@H](O)[C@H](O)[C@H]6O)[C@H](O)[C@H]5O[C@@H]5O[C@H](CO)[C@@H](O)[C@H](O)[C@H]5O)[C@](C)(CO)C4CC[C@@]3(C)[C@]1(C)C[C@H]2O (some centres undefined) ... 1.02
NC(Cc1c[nH]c2ccccc12)C(=O)O (centres undefined) ... 1
C#C[C@]1(O)CCC2C3CCC4=C(CCC(=O)C4)C3CC[C@@]21C (some centres undefined) ... 1
CC(C)CC(N(C)C)C1(c2ccc(Cl)cc2)CCC1 (centres undefined) ... 1.02
Cc1ccc(S(=O)(=O)NC(=O)NN2CC3CCCC3C2)cc1 (centres undefined) ... 1.01
